- system_tested: human adenosine A3 receptors (Homo sapiens, UniProt P0DMS8)
- Construct: expressed in transfected cells; host or cells: CHO-K1
- Sequence (P0DMS8 1-318): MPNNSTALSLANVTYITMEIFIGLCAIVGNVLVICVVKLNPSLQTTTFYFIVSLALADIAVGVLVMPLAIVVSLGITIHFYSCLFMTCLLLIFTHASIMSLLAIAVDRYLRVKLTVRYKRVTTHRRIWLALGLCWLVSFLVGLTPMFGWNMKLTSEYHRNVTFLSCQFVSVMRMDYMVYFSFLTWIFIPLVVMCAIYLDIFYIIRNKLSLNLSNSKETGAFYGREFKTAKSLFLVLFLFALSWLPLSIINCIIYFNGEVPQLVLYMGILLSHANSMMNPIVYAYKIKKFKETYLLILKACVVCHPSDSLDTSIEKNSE
- assay_text: Adenosine receptor binding: binding affinities at hA3 receptors ([125I]-AB MECA displacement)
- details: Table 1; ratio of Ki values
property_measured: Binding Selectivity A3/A2a

[[record]]
molecule = "Cc1csc(-c2nc(N)nc3c2nnn3Cc2cccc(C3(O)CCCC3)n2)n1 [Example 27]"
observed = 668

[[record]]
molecule = "Cc1ccc(-c2nc(N)nc3c2nnn3Cc2cccc(COCC(F)(F)F)n2)o1 [Example 37]"
observed = 560

[[record]]
molecule = "Cc1ccc(-c2nc(N)nc3c2nnn3Cc2cccc(COCC3CCOC3)n2)o1 (racemic) [Example 34]"
observed = 513


###

- system_tested: hA2B receptors (Homo sapiens)
- Construct: host or cells: HEK-293
- assay_text: Adenosine receptor binding: binding affinities at hA2B receptors ([3H]-ZM241385 displacement)
- details: Table 1; [3H]-ZM241385 displacement, HEK-293 membranes; read-out: Binding Affinity hA2B-Ki
pKi: −log10 of the molar value.
property_measured: pKi

A = Cc1csc(-c2nc(N)nc3c2nnn3Cc2cccc(C3(O)CCCC3)n2)n1
B = Cc1ccc(-c2nc(N)nc3c2nnn3Cc2cccc(COCC3CCCO3)n2)o1 (stereo not drawn)
Prompt line: For A and B , which recorded pKi is lower? Reply with the label of the item you choose.
Response line: A

A = Cc1ccc(-c2nc(N)nc3c2nnn3Cc2cccc(C3(O)CCOCC3)n2)o1
B = Cc1ccc(-c2nc(N)nc3c2nnn3Cc2cccc(COCC(F)(F)F)n2)o1
C = CC(C)(O)c1cccc(Cn2nnc3c(-c4ccccc4)nc(N)nc32)n1
Prompt line: Sequence the entries by pKi, beginning with the highest number. Your answer should be the labels, listed in the requested order.
Response line: C, B, A

I = Nc1nc(-c2ccccc2)c2nnn(Cc3cccc(C4(O)CCCC4)n3)c2n1
II = Cc1ccc(-c2nc(N)nc3c2nnn3Cc2cccc(COCC3CCOC3)n2)o1 (racemic)
III = Cc1ccc(-c2nc(N)nc3c2nnn3Cc2cccc(C3(O)CCCC3)n2)o1
Prompt line: Sort (3 molecules) by pKi: min first. Your answer should be the labels, listed in the requested order.
Response line: I, II, III
(I: 5.47, II: 5.72, III: 6.01)

A = COCc1cccc(Cn2nnc3c(-c4nc(C)cs4)nc(N)nc32)n1
B = COCc1cccc(Cn2nnc3c(-c4ccccc4)nc(N)nc32)n1
Prompt line: For A and B , which recorded pKi is lower? Reply with the label of the item you choose.
Response line: A

a = Nc1nc(-c2ccccc2)c2nnn(Cc3cccc(C4(O)CCC4)n3)c2n1
b = CCOCCOCc1cccc(Cn2nnc3c(-c4ccc(C)o4)nc(N)nc32)n1
Prompt line: Just curious, which one has the larger pKi reading, a or b ? Reply with the label of the item you choose.
Response line: b

###

- system_tested: hA2B receptors (Homo sapiens)
- Construct: host or cells: HEK-293
- Sequence (P29275 1-332): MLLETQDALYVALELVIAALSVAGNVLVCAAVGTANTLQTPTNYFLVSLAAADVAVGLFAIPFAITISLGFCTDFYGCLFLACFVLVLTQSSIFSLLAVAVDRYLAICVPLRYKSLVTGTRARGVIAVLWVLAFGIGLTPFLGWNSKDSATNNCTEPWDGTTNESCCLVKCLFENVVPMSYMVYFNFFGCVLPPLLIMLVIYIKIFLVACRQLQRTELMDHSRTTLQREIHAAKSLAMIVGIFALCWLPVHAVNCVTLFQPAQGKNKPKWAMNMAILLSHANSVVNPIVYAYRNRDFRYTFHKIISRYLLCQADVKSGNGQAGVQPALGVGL
- assay_text: Adenosine receptor binding: binding affinities at hA2B receptors ([3H]-ZM241385 displacement)
- details: Table 1; ratio of Ki values
property_measured: Binding Selectivity A2b/A2a

Below are worked cases with known answers.
[[record]]
compound = "CC(C)(O)c1cccc(Cn2nnc3c(-c4cccc(C#N)c4)nc(N)nc32)n1 [Example 20]"
system_tested = "hA2B receptors (Homo sapiens)"
observed = 93

[[record]]
compound = "Nc1nc(-c2nccs2)c2nnn(Cc3cccc(CO[C@H]4CCOC4)n3)c2n1 [Example 38]"
system_tested = "hA2B receptors (Homo sapiens)"
observed = 105


A = N#Cc1cccc(-c2nc(N)nc3c2nnn3Cc2cccc(C3(O)CCCC3)n2)c1 [Example 21]
B = Cc1ccc(-c2nc(N)nc3c2nnn3Cc2cccc(C3(O)CCCCC3)n2)o1 [Example 4]
Prompt line: For A and B , which recorded Binding Selectivity A2b/A2a is lower? Reply with the label of the item you choose.
Response line: A

###

- system_tested: human adenosine A2A receptors (Homo sapiens, UniProt P29274)
- Construct: host or cells: HEK-293
- Sequence (P29274 whole entry): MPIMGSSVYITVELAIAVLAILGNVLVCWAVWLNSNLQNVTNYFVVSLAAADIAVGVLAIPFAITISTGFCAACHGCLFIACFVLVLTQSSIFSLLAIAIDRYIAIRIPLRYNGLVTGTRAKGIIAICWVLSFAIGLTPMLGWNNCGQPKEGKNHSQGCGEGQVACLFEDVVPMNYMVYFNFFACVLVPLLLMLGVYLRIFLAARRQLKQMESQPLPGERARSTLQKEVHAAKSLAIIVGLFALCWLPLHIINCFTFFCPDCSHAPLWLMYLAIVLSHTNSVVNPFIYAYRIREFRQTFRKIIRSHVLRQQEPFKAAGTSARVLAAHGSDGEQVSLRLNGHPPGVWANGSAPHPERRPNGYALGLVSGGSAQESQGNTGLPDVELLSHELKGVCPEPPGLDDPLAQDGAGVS
- assay_text: Adenosine receptor binding: binding affinities at hA2A receptors ([3H]CGS-21680 displacement)
- details: Table 1; [3H]CGS-21680 displacement, HEK-293 membranes; read-out: Binding Affinity hA2A-Ki
pKi: −log10 of the molar value.
property_measured: pKi

Below are worked cases with known answers.
[[record]]
compound = "Cc1ccc(-c2nc(N)nc3c2nnn3Cc2cccc(COCC3CCCO3)n2)o1 (stereo not drawn) [Example 33]"
observed = 8.14

[[record]]
compound = "Nc1nc(-c2nccs2)c2nnn(Cc3cccc(CO[C@H]4CCOC4)n3)c2n1 [Example 38]"
observed = 7.55

[[record]]
compound = "Cc1ccc(-c2nc(N)nc3c2nnn3Cc2cccc(C3(O)CCCC3)n2)o1 [Example 3]"
observed = 8.80

[[record]]
compound = "Nc1nc(-c2ccccc2)c2nnn(Cc3cccc(CO[C@H]4CCOC4)n3)c2n1 [Example 7]"
observed = 7.87

[[record]]
compound = "CC(C)(O)c1cccc(Cn2nnc3c(-c4ccccc4)nc(N)nc32)n1 [Example 8]"
observed = 8.32


a = COc1cccc(-c2nc(N)nc3c2nnn3Cc2cccc(C(C)(C)O)n2)c1 [Example 14]
b = Cc1ccc(-c2nc(N)nc3c2nnn3Cc2cccc(C3(O)CCC3)n2)o1 [Example 6]
Prompt line: For a and b , which recorded pKi is lower? Reply with the label of the item you choose.
Response line: a

###

- system_tested: human adenosine A2A receptors (Homo sapiens)
- Construct: host or cells: HEK-293
- assay_text: Adenosine receptor binding: binding affinities at hA2A receptors ([3H]CGS-21680 displacement)
- details: Table 1; [3H]CGS-21680 displacement, HEK-293 membranes; read-out: Binding Affinity hA2A-Ki
- Description: Adenosine Receptor Binding: Binding Affinities at hA2A Receptors The resultant homogenate was kept for immediate use in the binding assay. […] Total binding was determined using drug dilution buffer (50 mM Tris-HCl pH 7.5, 10 mM MgCl2, 5% DMSO). Non-specific binding was determined using 300 μM CHA. […] The filters were then left for at least 2 hours before the radioactivity was assessed using a Canberra Packard TopCount microplate scintillation counter. […]
property_measured: Ki (nM)

[[record]]
structure_notation = "Nc1nc(-c2ccccc2)c2nnn(Cc3cccc(C4(O)CCC4)n3)c2n1"
quantity_unit = "nM"
observed = 5.2

[[record]]
structure_notation = "CC(C)(O)c1cccc(Cn2nnc3c(-c4cccc(C#N)c4)nc(N)nc32)n1"
quantity_unit = "nM"
observed = 13.4

[[record]]
structure_notation = "COc1cccc(-c2nc(N)nc3c2nnn3Cc2cccc(C3(O)CCC3)n2)c1"
quantity_unit = "nM"
observed = 9.9

[[record]]
structure_notation = "Cc1csc(-c2nc(N)nc3c2nnn3Cc2cccc(C3(O)CCCC3)n2)n1"
quantity_unit = "nM"
observed = 11.3

[[record]]
structure_notation = "N#Cc1cccc(-c2nc(N)nc3c2nnn3Cc2cccc(C3(O)CCCC3)n2)c1"
quantity_unit = "nM"
observed = 23.9


1 = Cc1ccc(-c2nc(N)nc3c2nnn3Cc2cccc(C(C)(C)O)n2)o1
2 = Cc1ccc(-c2nc(N)nc3c2nnn3Cc2cccc(C3(O)CCCCC3)n2)o1
3 = N#Cc1cccc(-c2nc(N)nc3c2nnn3Cc2cccc(C3(O)CCC3)n2)c1
Prompt line: Sequence the entries by Ki, beginning with the highest number. Your answer should be the labels, listed in the requested order.
Response line: 3, 2, 1
(3: 14.8 nM, 2: 3.1 nM, 1: 1.9 nM)
